Biological target: HaGST (recombinant rHaGST, delta-class glutathione S-transferase; GenBank EF033109 / ABK40535) (Helicoverpa armigera, UniProt A0MSN0)
Sequence (A0MSN0 1-220): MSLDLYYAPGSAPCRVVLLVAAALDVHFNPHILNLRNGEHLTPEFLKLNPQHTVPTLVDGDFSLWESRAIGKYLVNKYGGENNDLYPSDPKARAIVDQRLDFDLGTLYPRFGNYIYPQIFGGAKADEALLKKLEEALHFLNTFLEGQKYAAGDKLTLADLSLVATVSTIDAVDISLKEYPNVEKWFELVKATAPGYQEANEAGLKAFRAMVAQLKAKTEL
Assay: GSH/CDNB conjugation assay at […] nm with purified rHaGST; Lineweaver-Burk plot
property label: IC50 (µM)
Quick note: give the figure in µM, leave out the unit.

input: Quick one: IC50 for C[C@@]12C(=O)OC(=O)[C@]1(C)[C@H]1CC[C@@H]2O1 ?
output: 12.5
